- assayed-system: Protein HEXIM1 (Homo sapiens) (UniProt O94992)
- Sequence (O94992 whole entry): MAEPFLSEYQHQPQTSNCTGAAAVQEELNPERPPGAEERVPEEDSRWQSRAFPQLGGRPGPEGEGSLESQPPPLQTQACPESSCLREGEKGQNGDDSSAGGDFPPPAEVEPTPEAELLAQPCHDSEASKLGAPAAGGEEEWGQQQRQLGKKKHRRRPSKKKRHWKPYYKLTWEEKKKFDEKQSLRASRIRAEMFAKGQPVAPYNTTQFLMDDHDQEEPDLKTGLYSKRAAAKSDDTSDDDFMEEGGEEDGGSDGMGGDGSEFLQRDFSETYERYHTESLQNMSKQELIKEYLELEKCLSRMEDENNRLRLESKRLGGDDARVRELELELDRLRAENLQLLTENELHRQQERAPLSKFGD
- test-method-notes: Induction of HEXIM1 protein expression in human LNCAP cells at 500 uM after 24 hrs by Western blotting analysis relative to control
- Format: cell-based
Mark Fulfilled for reported fold change (FC) of 1 or greater; mark Not fulfilled for anything smaller.

1. CS(=O)(=O)NC1CCC(NS(C)(=O)=O)CC1 (stereo not given) :: Not fulfilled
2. CS(=O)(=O)NCCCNS(C)(=O)=O :: Fulfilled
3. O=C(NCCCCCCNC(=O)c1ccccc1)c1ccccc1 :: Not fulfilled
4. CC(=O)NCc1ccc(CNC(C)=O)cc1 :: Not fulfilled
5. CN(CC1CCC(CN(C)S(C)(=O)=O)CC1)S(C)(=O)=O (stereo not given) :: Fulfilled
6. CN(CCCN(C)S(C)(=O)=O)S(C)(=O)=O :: Fulfilled
7. CCCC(=O)NCCCCCCNC(=O)CCC :: Fulfilled
8. CS(=O)(=O)NCC1CCC(CNS(C)(=O)=O)CC1 (stereo not given) :: Fulfilled
9. CC(=O)NC1CCC(NC(C)=O)CC1 (stereo not given) :: Fulfilled
10. CC(=O)NCCCCCNC(C)=O :: Not fulfilled

* * *

- assayed-system: UniProt O94992
- test-method-notes: Induction of HEXIM1 protein expression in human LNCAP cells at 500 uM after 24 hrs by Western blotting analysis relative to control
- Assay type: cell-based
# key: entry, value: fold change (FC)
assay-readout: fold change (FC)

1. CS(=O)(=O)NCCCCCCNS(C)(=O)=O :: 0.31
2. CC(=O)NCCCCCCNC(=O)Oc1ccc(-c2ccccc2)cc1 :: 1.07
3. CS(=O)(=O)NCCCCCNS(C)(=O)=O :: 0.22
4. CN(C1CCC(N(C)S(C)(=O)=O)CC1)S(C)(=O)=O (configuration not stated) :: 1.27
5. CC(=O)NCC1CCC(CNC(C)=O)CC1 (configuration not stated) :: 2.14
6. CC(=O)N(C)CC1CCC(CN(C)C(C)=O)CC1 (configuration not stated) :: 1.38
7. CN(Cc1ccc(CN(C)S(C)(=O)=O)cc1)S(C)(=O)=O :: 1.39

* * *

- assayed-system: Protein HEXIM1 (Homo sapiens) (UniProt O94992)
- test-method-notes: Induction of HEXIM1 protein expression in human LNCAP cells at 500 uM after 24 hrs by Western blotting analysis relative to control
- Assay type: cell-based
assay-readout: fold change (FC)

1) CCC(=O)NCCCCCCNC(=O)CC :: 4.45
2) CC(=O)NCCCCCCNC(=O)c1ccc(Cl)c([N+](=O)[O-])c1 :: 0.08
3) CC(=O)NCCCNC(C)=O :: 0.68
4) COc1ccc(CC(=O)NCCCCCCNC(C)=O)cc1 :: 2.8
5) CC(=O)N(C)CCCCCCN(C)C(C)=O :: 0.25
6) COc1ccc(C(=O)NCCCCCCNC(C)=O)cc1 :: 1.93
7) CN(CCCCCCN(C)S(C)(=O)=O)S(C)(=O)=O :: 0.97
8) CC(=O)N(C)CCCN(C)C(C)=O :: 0.44
9) CC(=O)N(C)CCCCCN(C)C(C)=O :: 0.05
10) CC(=O)N(C)C1CCC(N(C)C(C)=O)CC1 (stereo not drawn) :: 3.09
11) CC(=O)N(C)Cc1ccc(CN(C)C(C)=O)cc1 :: 2.2
12) CN(CCCCCN(C)S(C)(=O)=O)S(C)(=O)=O :: 0.05
13) CS(=O)(=O)NCc1ccc(CNS(C)(=O)=O)cc1 :: 0.16

All values here come from ChEMBL document CHEMBL3120124.
